Molecular target: Hu-Asp2 (Homo sapiens, UniProt P56817)
Construct: made in house; host or cells: High Five insect cells
Sequence (P56817 46-501): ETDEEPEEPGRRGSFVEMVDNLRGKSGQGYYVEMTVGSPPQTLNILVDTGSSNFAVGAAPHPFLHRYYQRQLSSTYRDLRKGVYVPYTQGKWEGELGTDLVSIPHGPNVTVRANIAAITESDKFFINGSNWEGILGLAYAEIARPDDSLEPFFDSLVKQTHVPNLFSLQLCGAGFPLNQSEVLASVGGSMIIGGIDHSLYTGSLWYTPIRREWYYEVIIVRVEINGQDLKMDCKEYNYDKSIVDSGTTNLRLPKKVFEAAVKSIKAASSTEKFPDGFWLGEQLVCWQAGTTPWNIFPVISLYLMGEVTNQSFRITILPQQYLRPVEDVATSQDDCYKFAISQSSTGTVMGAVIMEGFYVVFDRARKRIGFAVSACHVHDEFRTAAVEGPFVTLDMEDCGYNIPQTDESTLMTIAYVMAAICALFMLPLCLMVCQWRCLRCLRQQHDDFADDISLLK
Experiment: Hu-Asp2 peptide substrate cleavage assay (HPLC quantitation of cleavage products)
Type: biochemical
Design: key: Those substrates that were not cleaved by the Hu-Asp2 are indicated by a “−” sign; substrates that produced activity are indicated by “+” signs in which the greater the activity, the more + signs are provided; ++: substrates that produced activity are indicated by “+” signs in which the greater the activity, the more + signs are provided; ++++: substrates that produced activity are indicated by “+” signs in which the greater the activity, the more + signs are provided
Details: 200 μM test substrate, 210 nM Hu-Asp2 enzyme, pH 4.5, 37° C., 3 hours

{"columns": ["Substance", "Activity"],
 "data": [
  ["KVEANY-AVEGERKK (KVEANYAVEGERKK)", "++++"],
  ["WRRVEALY-LVEGERK (WRRVEALYLVEGERK)", "++"],
  ["KVEANY-DVEGERKK (KVEANYDVEGERKK)", "+"]
]}

----------
Biological target: Hu-Asp2 (Homo sapiens, UniProt P56817)
Construct: made in house; host or cells: High Five insect cells
Experiment: Hu-Asp2 peptide substrate cleavage assay (HPLC quantitation of cleavage products)
Format: biochemical
Conditions: Table 5; 2 nM enzyme, 50 μM substrate, 25 mM Sodium acetate, pH 4.4, 37° C., 2 hr; SEQ ID NO:141 = 100
Property: Relative rate of Cleavage
The reply should be a number, written without any unit.

Recorded Relative rate of Cleavage, per entry:
{"columns": ["Substance", "Property", "Test Value"],
 "data": [
  ["TEIDY-EVEFR (TEIDYEVEFR)", "Relative rate of Cleavage", 390],
  ["SEVSY-↓-EVEFR (SEVSYEVEFR)", "Relative rate of Cleavage", 100],
  ["SEVDY-EVEFR (SEVDYEVEFR)", "Relative rate of Cleavage", 240]
]}

QUERY: Field request: Relative rate of Cleavage | item: SEISY-EVEFR (SEISYEVEFR)
RESULT: 500

QUERY: One more substance: TEVDY-EVEFR (TEVDYEVEFR)
RESULT: 230

QUERY: One more substance: TEVSY-EVEFR (TEVSYEVEFR)
RESULT: 160

QUERY: One more substance: TRPGSGLTNIKTEEISEVSY-EVEFR (TRPGSGLTNIKTEEISEVSYEVEFR)
RESULT: 840

QUERY: One more substance: SEIDY-EVEFR (SEIDYEVEFR)
RESULT: 430

QUERY: One more substance: KTEEISEVSY-EVEFR (KTEEISEVSYEVEFR)
RESULT: 360

----------
Biological target: Hu-Asp2 (Homo sapiens)
Construct: made in house; host or cells: High Five insect cells
Assay: Hu-Asp2 peptide substrate cleavage assay (HPLC quantitation of cleavage products)
Format: biochemical
Settings: Table 4; 200 nM enzyme, 200 μM substrate, pH 4.5, 37° C., 1 hr; SEQ ID NO:19 = 100
Listed next: entries and their corresponding Relative rate of Cleavage.
The reply should be a number, written without any unit.

Recorded Relative rate of Cleavage, per entry:
{"columns": ["Substance", "Property", "Test Value"],
 "data": [
  ["SEVNL-DAEFR (SEVNLDAEFR) [APP-Sw, reference compound]", "Relative rate of Cleavage", 100.0],
  ["SEVSY-↓-DAEFR (SEVSYDAEFR)", "Relative rate of Cleavage", 18.3],
  ["SEVSY-↓-EVEFR (SEVSYEVEFR)", "Relative rate of Cleavage", 141.8]
]}

Switching to the query record.
QUERY: Field request: Relative rate of Cleavage | item: SEVSY-↓-EAEFR (SEVSYEAEFR)
RESULT: 77.1
